# PROTOCOL_NOTES: Stability in mouse plasma at 1 uM incubated for 6 hrs by LC-MS/MS analysis
# Type: ADME, cell-free
# DETAILS: read-out: Stability
PARAMETER: remaining at 6 h, 1 µM (%)

C[C@@H](O)[C@H](NC(=O)c1ccc(C#Cc2ccc(/C=N/N3CCCC3)cc2)cc1)C(=O)NO :: 111
C[C@@H](O)[C@H](NC(=O)c1ccc(C#Cc2ccc(CN3CCOCC3)cc2)cc1)C(=O)NO :: 93.2

====

# PROTOCOL_NOTES: Solubility of the compound at pH 6.8 by LC-MS/MS analysis
# Type: physicochemical
# DETAILS: buffer
PARAMETER: solubility (µM)

C[C@@H](O)[C@H](NC(=O)c1ccc(C#Cc2ccc(/C=N/N3CCCC3)cc2)cc1)C(=O)NO :: 9.41

====

# Test system: Klebsiella pneumoniae
# PROTOCOL_NOTES: Antibacterial activity against Klebsiella pneumoniae clinical isolate KPN+22-1 assessed as reduction in bacterial growth measured after 18 to 24 hrs by CLSI protocol based method
# Assay type: functional
# DETAILS: time 18-24 hrs
We label by threshold. Values of MIC strictly beneath 4 µg/mL are true (1). Values of 4 µg/mL and up are false (0).

CCOC(=O)N1CCN(/N=C/c2ccc(C#Cc3ccc(C(=O)N[C@H](C(=O)NO)[C@@H](C)O)cc3)cn2)CC1 :: false (0)
C[C@@H](O)[C@H](NC(=O)c1ccc(C#Cc2ccc(/C=N/N3CCN(C4CCCC4)CC3)cc2)cc1)C(=O)NO :: false (0)
C[C@@H](O)[C@H](NC(=O)c1ccc(C#Cc2ccc(CN3CCOCC3)cc2)cc1)C(=O)NO :: true (1)
C[C@@H](O)[C@H](NC(=O)c1ccc(C#Cc2ccc(/C=N/N3CCN(S(C)(=O)=O)CC3)cc2)cc1)C(=O)NO :: false (0)
CCC(=O)N1CCN(/N=C/c2ccc(C#Cc3ccc(C(=O)N[C@H](C(=O)NO)[C@@H](C)O)cc3)cc2)CC1 :: true (1)
O=C(NO)C1CN(c2ccc(C#Cc3ccc(/C=N/N4CCCC4)cc3)cc2)C(=O)O1 (stereo unspecified) :: false (0)
C[C@@H](O)[C@H](NC(=O)c1ccc(C#Cc2ccc(/C=N/N3CCN(C)CC3)cc2)cc1)C(=O)NO :: true (1)
C[C@@H](O)[C@H](NC(=O)c1ccc(C#Cc2ccc(/C=N/N3CCN(C(=O)C4CC4)CC3)cc2)cc1)C(=O)NO :: true (1)
O=C(NO)C1CN(c2ccc(C#Cc3ccc(/C=N/N4CCOCC4)cc3)cc2)C(=O)O1 (stereo unspecified) :: false (0)
C[C@@H](O)[C@H](NC(=O)c1ccc(C#Cc2ccc(/C=N/N3CCN(C(=O)C(C)(C)C)CC3)nc2)cc1)C(=O)NO :: false (0)
C[C@@H](O)[C@H](NC(=O)c1ccc(C#Cc2ccc(/C=N/N3CCNCC3)cc2)cc1)C(=O)NO :: false (0)
C[C@@H](O)[C@H](NC(=O)c1ccc(C#Cc2ccc(/C=N/N3CCCC3)cc2)cc1)C(=O)NO :: true (1)
CCN1CCN(/N=C/c2ccc(C#Cc3ccc(C(=O)N[C@H](C(=O)NO)[C@@H](C)O)cc3)cn2)CC1 :: false (0)

====

# PROTOCOL_NOTES: AUC (0 to t) in male Sprague-Dawley rat at 10 mg/kg, IG measured upto 24 hrs by LC-MS analysis
# Type: ADME, organism-based
# DETAILS: in vivo, po
Below is a list of entries, each paired with its recorded AUC(0-t) at 24 h value.
PARAMETER: AUC(0-t) at 24 h (ng·h/mL)

C[C@@H](O)[C@H](NC(=O)c1ccc(C#Cc2ccc(/C=N/N3CCCC3)cc2)cc1)C(=O)NO :: 1050
C[C@@H](O)[C@H](NC(=O)c1ccc(C#Cc2ccc(CN3CCOCC3)cc2)cc1)C(=O)NO :: 243

Source listed as ChEMBL document CHEMBL6127085.
